biological target: GPR17 (Homo sapiens); assay: Calcium mobilization functional assay (GPR17 Ca2+ assay); type: cell-based; parameters: host or cells: Flp-In T-REx CHO; conditions: CHO hGPR17 cells, inhibition of 50 nM MDL29,951, Calcium 5 dye, FLIPR; read-out: Ca2+ assay pIC50 (converted)
Property Label: IC50

QUERY: Value wanted: IC50 (GPR17 (Homo sapiens)) of entry CCOC(=O)C1CC1c1cc(F)c(NS(=O)(=O)c2c[nH]c3cc(Cl)ccc23)nc1F (centres unmarked)
RESULT: 3.16 to 31.6 nM

QUERY: Okay, and O=S(=O)(Nc1cc(F)c(F)cc1F)c1c[nH]c2ncc(I)cc12 ?
RESULT: > 31.6 nM

QUERY: Okay, and N#Cc1ccc(NS(=O)(=O)c2c[nH]c3c4c(ccc23)CCC4)c(F)c1 ?
RESULT: 3.16 to 31.6 nM

QUERY: Okay, and O=S(=O)(Nc1ccc(I)cc1F)c1c[nH]c2ncc(I)cc12 ?
RESULT: > 31.6 nM

QUERY: Okay, and O=S(=O)(Nc1cc(F)ccc1F)c1c[nH]c2nc(Cl)ccc12 ?
RESULT: > 31.6 nM

* * *

target: GPR17 (Homo sapiens); test: cAMP accumulation functional assay (HTRF, Schild analysis); format: cell-based; set-up: host or cells: Flp-In T-REx CHO; conditions: CHO hGPR17 cells, Schild analysis vs MDL29,951, 5 μM forskolin, read-out: cAMP assay pA2 (converted)
So I've got a bunch of compounds here, and I need their Kb values.

QUERY: What value of Kb has been recorded for this entry: CS(=O)(=O)c1ccc2c(S(=O)(=O)Nc3cc(F)c(F)cc3F)c[nH]c2c1
RESULT: > 31.6 nM

QUERY: Okay, and N#CCOc1cc(F)c(NS(=O)(=O)c2csc3cc(Cl)ccc23)cc1F ?
RESULT: 3.16 to 31.6 nM

QUERY: Okay, and O=S(=O)(Nc1cccc2c1OCO2)c1c[nH]c2cc(Cl)ccc12 ?
RESULT: 3.16 to 31.6 nM

QUERY: Okay, and O=S(=O)(Nc1cc2c(cc1F)OC(F)(F)O2)c1c[nH]c2cc(Cl)ccc12 ?
RESULT: 3.16 to 31.6 nM

QUERY: Okay, and O=S(=O)(Nc1ccc(Cl)cc1)c1c[nH]c2cc(Cl)ccc12 ?
RESULT: > 31.6 nM

QUERY: Okay, and O=S(=O)(Nc1ncc(F)cc1F)c1c[nH]c2cc(Cl)ccc12 ?
RESULT: 3.16 to 31.6 nM

QUERY: Okay, and COc1ccc2c(S(=O)(=O)Nc3cc(F)c(Cl)cc3F)c[nH]c2c1 ?
RESULT: 3.16 to 31.6 nM

QUERY: Okay, and COc1nc(NS(=O)(=O)c2c[nH]c3nc(Cl)ccc23)c(F)cc1Cl ?
RESULT: 3.16 to 31.6 nM

QUERY: Okay, and O=S(=O)(Nc1cc(F)c(OC(F)F)cc1F)c1c[nH]c2nc(Cl)ccc12 ?
RESULT: < 3.16 nM

QUERY: Okay, and COc1nc(NS(=O)(=O)c2c[nH]c3c(F)c(Cl)ccc23)c(F)cc1Cl ?
RESULT: < 3.16 nM

QUERY: Okay, and O=S(=O)(Nc1ccc(OC(F)(F)F)cc1F)c1c[nH]c2cc(Cl)ccc12 ?
RESULT: 3.16 to 31.6 nM

QUERY: Okay, and Cc1cnc(NS(=O)(=O)c2c[nH]c3cc(Cl)ccc23)c(F)c1 ?
RESULT: 3.16 to 31.6 nM

QUERY: Okay, and N#Cc1ccc(NS(=O)(=O)c2c[nH]c3cc(Cl)c(F)cc23)c(F)c1 ?
RESULT: 3.16 to 31.6 nM

QUERY: Okay, and O=S(=O)(Nc1cccc2c1OC(F)(F)O2)c1c[nH]c2cc(Cl)ccc12 ?
RESULT: 3.16 to 31.6 nM

QUERY: Okay, and O=S(=O)(Nc1ccc(Cl)cn1)c1c[nH]c2cc(Cl)ccc12 ?
RESULT: 3.16 to 31.6 nM

QUERY: Okay, and N#Cc1ccc(NS(=O)(=O)c2c[nH]c3cc(C(F)(F)F)ccc23)c(F)c1 ?
RESULT: < 3.16 nM

* * *

target: GPR17 (Homo sapiens, UniProt Q13304); assay: cAMP accumulation functional assay (HTRF, Schild analysis); format: cell-based; parameters: host or cells: Flp-In T-REx CHO; details: CHO hGPR17 cells, Schild analysis vs MDL29,951, 5 μM forskolin, read-out: cAMP assay pA2 (converted)
Sequence (Q13304 whole entry): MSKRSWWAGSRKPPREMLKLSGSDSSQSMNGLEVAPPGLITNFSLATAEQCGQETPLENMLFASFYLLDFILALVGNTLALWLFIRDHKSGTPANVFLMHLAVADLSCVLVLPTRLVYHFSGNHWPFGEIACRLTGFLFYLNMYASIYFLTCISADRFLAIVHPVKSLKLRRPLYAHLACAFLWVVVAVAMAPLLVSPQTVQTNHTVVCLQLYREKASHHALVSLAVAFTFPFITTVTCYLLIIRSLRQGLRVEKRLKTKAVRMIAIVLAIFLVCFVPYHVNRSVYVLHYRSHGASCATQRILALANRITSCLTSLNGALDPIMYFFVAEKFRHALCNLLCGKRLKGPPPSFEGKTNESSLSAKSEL
Property Label: Kb

QUERY: What value of Kb has been recorded for this entry: COc1cc(C#N)c(F)cc1NS(=O)(=O)c1c[nH]c2c1ccc1ccccc12
RESULT: < 3.16 nM

QUERY: Okay, and N#CCOc1cc(F)c(NS(=O)(=O)c2coc3cc(Cl)ccc23)cc1F ?
RESULT: 3.16 to 31.6 nM

QUERY: Okay, and O=S(=O)(Nc1cc(F)c(Cl)cc1F)c1c[nH]c2cc(Br)cc(F)c12 ?
RESULT: 3.16 to 31.6 nM

QUERY: Okay, and COC/C=C/c1cc(F)c(NS(=O)(=O)c2c[nH]c3cc(Cl)ccc23)nc1F ?
RESULT: < 3.16 nM

QUERY: Okay, and O=S(=O)(Nc1ccc(Br)c(Cl)n1)c1c[nH]c2cc(Cl)ccc12 ?
RESULT: 3.16 to 31.6 nM

QUERY: Okay, and O=S(=O)(Nc1nc(F)c(Cl)cc1F)c1c[nH]c2nc(Cl)ccc12 ?
RESULT: 3.16 to 31.6 nM

QUERY: Okay, and N#Cc1ccc2c(S(=O)(=O)Nc3cc(F)c(Cl)cc3F)c[nH]c2c1 ?
RESULT: < 3.16 nM

QUERY: Okay, and Cc1ccc(NS(=O)(=O)c2c[nH]c3cc(Cl)ccc23)c(F)c1 ?
RESULT: 3.16 to 31.6 nM

QUERY: Okay, and O=S(=O)(Nc1ncc(C(F)(F)F)cc1F)c1c[nH]c2cc(Cl)ccc12 ?
RESULT: < 3.16 nM

QUERY: Okay, and COc1cc(CC#N)c(F)nc1NS(=O)(=O)c1c[nH]c2cc(Cl)ccc12 ?
RESULT: < 3.16 nM

QUERY: Okay, and O=S(=O)(Nc1cccc2c1OCO2)c1c[nH]c2nc(Br)ccc12 ?
RESULT: 3.16 to 31.6 nM

QUERY: Okay, and O=S(=O)(Nc1cc(F)c(Cl)cc1F)c1c[nH]c2nc(C(F)(F)F)ccc12 ?
RESULT: < 3.16 nM

QUERY: Okay, and O=S(=O)(Nc1cccc2nsnc12)c1c[nH]c2cc(Br)ccc12 ?
RESULT: < 3.16 nM

QUERY: Okay, and O=S(=O)(Nc1ccc(I)cn1)c1c[nH]c2cc(Cl)ccc12 ?
RESULT: 3.16 to 31.6 nM

QUERY: Okay, and O=S(=O)(Nc1ccc(I)cc1F)c1c[nH]c2cc3c(cc12)OCO3 ?
RESULT: 3.16 to 31.6 nM

QUERY: Okay, and O=S(=O)(Nc1cc(F)c(I)cc1F)c1c[nH]c2cc(Cl)ccc12 ?
RESULT: < 3.16 nM

QUERY: Okay, and CS(=O)(=O)c1ccc2c(S(=O)(=O)Nc3ccc(Cl)cc3F)c[nH]c2c1 ?
RESULT: 3.16 to 31.6 nM

QUERY: Okay, and O=S(=O)(Nc1ccc(Br)cc1F)c1c[nH]c2cc(Cl)ccc12 ?
RESULT: < 3.16 nM

QUERY: Okay, and COc1nc(NS(=O)(=O)c2c[nH]c3c(F)c(Cl)ccc23)c(F)cc1F ?
RESULT: 3.16 to 31.6 nM

QUERY: Okay, and COc1cc(NS(=O)(=O)c2c[nH]c3cc(Cl)ccc23)c(F)cc1C#N ?
RESULT: < 3.16 nM

QUERY: Okay, and N#Cc1ccc(NS(=O)(=O)c2c[nH]c3nc(Br)ccc23)cc1 ?
RESULT: 3.16 to 31.6 nM

QUERY: Okay, and N#Cc1ccc(NS(=O)(=O)c2c[nH]c3cc(OCC(F)(F)F)ccc23)c(F)c1 ?
RESULT: 3.16 to 31.6 nM

* * *

molecular target: GPR17 (Homo sapiens); assay: Calcium mobilization functional assay (GPR17 Ca2+ assay); assay type: cell-based; set-up: host or cells: Flp-In T-REx CHO; settings: CHO hGPR17 cells, inhibition of 50 nM MDL29,951, Calcium 5 dye, FLIPR; read-out: Ca2+ assay pIC50 (converted)
So I've got a bunch of compounds here, and I need their IC50 values.

QUERY: What value of IC50 has been recorded for this entry: O=S(=O)(Nc1ccc(Cl)cc1F)c1c[nH]c2cc(Cl)ccc12
RESULT: 3.16 to 31.6 nM

QUERY: Okay, and O=S(=O)(Nc1cc(F)c(I)cc1F)c1c[nH]c2cc(Cl)ccc12 ?
RESULT: < 3.16 nM

QUERY: Okay, and COc1cc(C#N)c(F)cc1NS(=O)(=O)c1c[nH]c2cc(Cl)ccc12 ?
RESULT: < 3.16 nM

QUERY: Okay, and N#Cc1ccc(NS(=O)(=O)c2c[nH]c3cc(Cl)ccc23)c2nsnc12 ?
RESULT: > 31.6 nM

QUERY: Okay, and O=S(=O)(Nc1cc(F)c(OCC(F)F)cc1F)c1c[nH]c2cc(Cl)ccc12 ?
RESULT: < 3.16 nM

QUERY: Okay, and O=S(=O)(Nc1ccc(I)cn1)c1c[nH]c2cc(Cl)ccc12 ?
RESULT: 3.16 to 31.6 nM

QUERY: Okay, and CC1OC(=O)c2cc(NS(=O)(=O)c3c[nH]c4cc(Cl)ccc34)c(F)cc21 (stereo not shown) ?
RESULT: < 3.16 nM
